Test description: Drug interaction study: carisoprodol added to a steady-state regimen of phenytoin
Experimental parameters: human, in vivo, T1/2, free steady-state phenytoin, least sq. mean
Experimental endpoint: half-life (h)
Value expressed in h; do not type the unit.

Lookup: For the compound O=C1NC(=O)C(c2ccccc2)(c2ccccc2)N1 , what half-life is on record?
Found: 35.4

* * *

Test description: Single-dose two-way crossover study of phenytoin pharmacokinetics, alone or co-administered with carisoprodol
Experimental parameters: human, in vivo, Tmax, free phenytoin, least sq. mean
Experimental endpoint: Tmax (h)
Value expressed in h; do not type the unit.

Lookup: For the compound O=C1NC(=O)C(c2ccccc2)(c2ccccc2)N1 [Phenytoin, 5,5-diphenylhydantoin] , what Tmax is on record?
Found: 9.17

* * *

Test description: Drug interaction study: carisoprodol added to a steady-state regimen of phenytoin
Experimental parameters: human, in vivo, T1/2, total steady-state phenytoin, least sq. mean
Experimental endpoint: half-life (h)
Value expressed in h; do not type the unit.

Lookup: For the compound O=C1NC(=O)C(c2ccccc2)(c2ccccc2)N1 [Phenytoin, 5,5-diphenylhydantoin] , what half-life is on record?
Found: 39.4

* * *

Test description: Single-dose two-way crossover study of phenytoin pharmacokinetics, alone or co-administered with carisoprodol
Experimental parameters: human, in vivo
Experimental endpoint: AUC(0-t)
Could you write the number and then its unit?

Lookup: For the molecule O=C1NC(=O)C(c2ccccc2)(c2ccccc2)N1 [Phenytoin, 5,5-diphenylhydantoin] , what AUC(0-t) is on record?
Found: 97300 ng·h/mL

* * *

Test description: Single-dose two-way crossover study of phenytoin pharmacokinetics, alone or co-administered with carisoprodol
Experimental parameters: human, in vivo, T1/2, total phenytoin, least sq. mean
Experimental endpoint: half-life (h)
Value expressed in h; do not type the unit.

Lookup: For the molecule O=C1NC(=O)C(c2ccccc2)(c2ccccc2)N1 , what half-life is on record?
Found: 23.9

* * *

Test description: Single-dose two-way crossover study of phenytoin pharmacokinetics, alone or co-administered with carisoprodol
Experimental parameters: human, in vivo, Tmax, total phenytoin, least sq. mean
Experimental endpoint: Tmax (h)
Value expressed in h; do not type the unit.

Lookup: For the molecule O=C1NC(=O)C(c2ccccc2)(c2ccccc2)N1 , what Tmax is on record?
Found: 7.44
